Measured pIC50 accompanies every entry in the list below.
tested on: HCT-116, HT-29, MCF-7 and vero cell lines; experiment: MTT cytotoxicity assay, stated over all four cell lines; format: cell-based; conditions: read-out: IC50 range over all cell lines
pIC50: −log10 of the molar value.

Here's what some known entries look like.
| MOLECULE | OBSERVED VALUE |
| --- | --- |
| COc1cc(OC)c2c(c1)OCC(c1cc(OC)c(OC)cc1OC)C2 (centres unmarked) [Compound 11, 5,7,2′,4′,5′-Pentamethoxyisoflavan] | 4.43 to 4.72 |
| COc1cc(C2COc3cc(O)cc(O)c3C2=O)c(OC)cc1O (centres unmarked) [Compound 8] | 3.83 to 4.16 |
| COc1cc(O)c2c(c1)OCC(c1cc(OC)c(OC)cc1OC)C2=O (centres unmarked) [Compound 9] | 4.43 to 4.72 |
| COc1cc(O)c2c(=O)c(-c3cc(OC)c(OC)cc3OC)coc2c1 [Compound 5] | 4.72 to 5.00 |

Consider the additional molecule presented here.
I would be grateful if you could share the reported pIC50 for COc1cc(O)c2c(c1)OCC(c1cc(OC)c(OC)cc1OC)C2=NO (centres unmarked) [Compound 15] .
4.42 to 4.59

###

tested on: MCF-7; experiment: MTT cytotoxicity assay, MCF-7; format: cell-based, human; conditions: Homo sapiens, MCF7, 72 h, read-out: Cytotoxicity IC50, MCF-7
MEASUREMENT LABEL: IC50 (µM)
Just the number please, in µM, no unit attached.

Use the examples below as a reference point.
| MOLECULE | IC50 (µM) |
| --- | --- |
| COc1cc(O)c2c(c1)OCC(c1cc(OC)c(OC)cc1OC)C2=NO (centres unmarked) | 28.9 |
| COc1cc(O)c2c(=O)c(-c3cc(OC)c(OC)cc3OC)coc2c1 | 12.5 |
| COc1cc(OC)c2c(c1)OCC(c1cc(OC)c(OC)cc1OC)C2 (centres unmarked) | 21.1 |

What value of measured IC50 is listed for COc1cc(C2COc3cc(O)cc(O)c3C2=O)c(OC)cc1O (centres unmarked) ?
148

Try this molecule too: COc1cc(OC)c2c(c1)OCC(c1cc(OC)c(OC)cc1OC)C2=O (centres unmarked)
73.8

Could you do the same for COc1cc(O)c2c(c1)OCC(c1cc(OC)c(OC)cc1OC)C2=O (centres unmarked) , please?
31

Consider next the molecule "COc1cc(OC)c2c(=O)c(-c3cc(OC)c(OC)cc3OC)coc2c1" in the same way.
98.5

How about "COc1cc(-c2coc3cc(O)cc(O)c3c2=O)c(OC)cc1O" ?
72.1

###

system: HT-29; test: MTT cytotoxicity assay, HT-29; assay type: cell-based, human; details: Homo sapiens, HT-29, 72 h, read-out: Cytotoxicity IC50, HT-29
Entries and their measured pIC50 follow.
Scale for pIC50: -log10 of concentration given in mol/L; no unit attached.

Answered examples (2):
| MOLECULE | pIC50 |
| --- | --- |
| COc1cc(C2COc3cc(O)cc(O)c3C2=O)c(OC)cc1O (stereo not drawn) | 4.16 |
| COc1cc(O)c2c(=O)c(-c3cc(OC)c(OC)cc3OC)coc2c1 | 4.97 |

Okay, now this molecule:
May I ask what pIC50 has been recorded for COc1cc(OC)c2c(c1)OCC(c1cc(OC)c(OC)cc1OC)C2 (stereo not drawn) ?
4.53
